Measured values drawn from patent US8546394B2 for this set.

- Study Target: recombinant human 11beta-HSD1 (Homo sapiens, UniProt P28845)
- Construct: Full length recombinant human 11β-HSD1 cDNAs and the cDNA encoding human 11β-HSD2 were expressed stably in HEK 293 EBNA cells
- Sequence (P28845 whole entry): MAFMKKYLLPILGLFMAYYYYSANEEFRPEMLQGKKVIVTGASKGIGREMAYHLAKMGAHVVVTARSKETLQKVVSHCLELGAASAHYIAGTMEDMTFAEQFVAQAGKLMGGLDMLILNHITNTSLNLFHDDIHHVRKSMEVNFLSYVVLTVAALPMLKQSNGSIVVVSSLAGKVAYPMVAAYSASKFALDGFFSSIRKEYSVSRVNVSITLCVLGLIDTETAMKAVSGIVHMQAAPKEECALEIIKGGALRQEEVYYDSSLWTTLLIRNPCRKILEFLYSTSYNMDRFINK
- Method Summary: 11β-HSD1 SPA enzyme assay (in vitro inhibition, human microsomes, 3H-cortisone)
- Condition Details: microsomes from HEK 293 EBNA cells, 40 nM 3H-cortisone, 4 hrs room temperature
Reported Property: IC50 (nM)
Give bare numbers, in nM.

Consider the following illustrative entries.
>>> recorded_measurement("CC(C)(c1ccc(F)cc1)c1nnc2c(Cl)nccn12")
5130
>>> recorded_measurement("C=CCCc1nccn2c(C3(c4ccc(Cl)cc4)CC3)nnc12")
1.3

// for each compound in input: emit IC50
1. CC(C)(c1ccc(Cl)cc1)c1nnc2c(C3CC3)nccn12
2. CC(C)(Oc1ccc(Cl)cc1Cl)c1nnc2c(C3CC3)nccn12

A)
1. 1.8
2. 1.8

###

Would you kindly list pIC50 for each of these compounds?
- Study Target: recombinant human 11beta-HSD1 (Homo sapiens, UniProt P28845)
- Construct: Full length recombinant human 11β-HSD1 cDNAs and the cDNA encoding human 11β-HSD2 were expressed stably in HEK 293 EBNA cells
- Method Summary: 11β-HSD1 SPA enzyme assay (in vitro inhibition, human microsomes, 3H-cortisone)
- Condition Details: microsomes from HEK 293 EBNA cells, 40 nM 3H-cortisone, 4 hrs room temperature
Where a name gives a salt, the structure may show the parent alone.
Answers are plain numbers, as −log10 of the molar value.

Consider the following illustrative entries.
>>> recorded_measurement("Clc1ccc(C2(c3nnc4nc(C5CC5)ccn34)CC2)cc1 [Example 3]")
6.34
>>> recorded_measurement("FC(F)(F)Oc1ccccc1Oc1nccn2c(C3(c4ccc(Cl)cc4)CC3)nnc12 [Example 4]")
9.30
>>> recorded_measurement("CC(C)(O)c1ccnn2c(C3(c4ccc(Cl)cc4)CC3)nnc12 [Example 36]")
8.92
>>> recorded_measurement("Clc1ccc(C2(c3nnc4c(C5CC5)nccn34)CCC2)c(Cl)c1 [Example 6]")
9.22

// for each compound in input: emit pIC50
1. OC12CCC(c3nnc4c(Oc5ccccc5Cl)nccn34)(CC1)C2 [Example 27]
2. CC(C)(O)c1nccn2c(C3(c4ccc(Cl)cc4)CC3)nnc12 [Example 35, TFA salt]
3. CC(C)(Oc1ccccc1)c1nnc2c(Cl)nccn12 [Example 16]
4. Clc1ccc(C2(c3nnc4c5c(cnn34)CCCC5)CC2)cc1 [Example 29, TFA Salt]
5. Clc1ccc(C2(c3nnc4c5sccc5ncn34)CC2)cc1 [Example 28]

A)
1. 6.47
2. 8.10
3. 5.22
4. 7.92
5. 7.07
